test.system: Focal adhesion kinase 1 (Homo sapiens)
protocol: small-molecule microarray binders of FAK, primary screen, biochemical, 635/667 nm fluorescence, BSA, DTT (AID 1130);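 further: composite of spot emission at 667 nm and signal to noise over triplicate slides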
test.parameters: PTK2 binding, 635 nm fluorescence, higher = more signal
Entries and their composite z-score values follow.
In your answer, state the number alone without any accompanying words.

Some solved cases for reference:
compound="CCC1=NOC(CCC2CC(OC(=O)NCc3cccc4c3OCO4)CC3(CCCC(COC(=O)NCCc4ccc(Cl)cc4)O3)O2)C1 (centres undefined)" test_readout="composite z-score" quantitative_readout=-0.123
compound=CCN1C(=O)[C@H]2[C@H]3[C@H](O)[C@H](O)CC(=NO[C@@H](C)c4cc(-c5c(C)cc(C)cc5C)no4)[C@@H]3CC[C@H]2C1=O test_readout="composite z-score" quantitative_readout=0.23
compound="CCOC(=O)[C@H](Cc1ccccc1)NC(=O)CCC1CC(OC(=O)NCc2ccc3c(c2)OCO3)CC2(CCCC(COC(=O)NCCCN3CCCC3=O)O2)O1 (some centres undefined)" test_readout="composite z-score" quantitative_readout=0.28

Kindly consider the entry below.
Enquiry: Fill in composite z-score for record CCOC(=O)[C@H](CC(C)C)NC(=O)CCC1CC(OC(=O)NCc2ccc3c(c2)OCO3)CC2(CCCC(COC(=O)NCCC(C)C)O2)O1 (some centres undefined)
Return: 0.0454
